Biological target: T1, human cMet expressed on 3T3 cells (human, UniProt P08581 25-1390)
T1 construct: whole, on cells; cells fixed with glutaraldehyde; also called cell surface-expressed human cMet; 3T3 cells that over-express human cMet
T1 sequence (P08581 25-1390): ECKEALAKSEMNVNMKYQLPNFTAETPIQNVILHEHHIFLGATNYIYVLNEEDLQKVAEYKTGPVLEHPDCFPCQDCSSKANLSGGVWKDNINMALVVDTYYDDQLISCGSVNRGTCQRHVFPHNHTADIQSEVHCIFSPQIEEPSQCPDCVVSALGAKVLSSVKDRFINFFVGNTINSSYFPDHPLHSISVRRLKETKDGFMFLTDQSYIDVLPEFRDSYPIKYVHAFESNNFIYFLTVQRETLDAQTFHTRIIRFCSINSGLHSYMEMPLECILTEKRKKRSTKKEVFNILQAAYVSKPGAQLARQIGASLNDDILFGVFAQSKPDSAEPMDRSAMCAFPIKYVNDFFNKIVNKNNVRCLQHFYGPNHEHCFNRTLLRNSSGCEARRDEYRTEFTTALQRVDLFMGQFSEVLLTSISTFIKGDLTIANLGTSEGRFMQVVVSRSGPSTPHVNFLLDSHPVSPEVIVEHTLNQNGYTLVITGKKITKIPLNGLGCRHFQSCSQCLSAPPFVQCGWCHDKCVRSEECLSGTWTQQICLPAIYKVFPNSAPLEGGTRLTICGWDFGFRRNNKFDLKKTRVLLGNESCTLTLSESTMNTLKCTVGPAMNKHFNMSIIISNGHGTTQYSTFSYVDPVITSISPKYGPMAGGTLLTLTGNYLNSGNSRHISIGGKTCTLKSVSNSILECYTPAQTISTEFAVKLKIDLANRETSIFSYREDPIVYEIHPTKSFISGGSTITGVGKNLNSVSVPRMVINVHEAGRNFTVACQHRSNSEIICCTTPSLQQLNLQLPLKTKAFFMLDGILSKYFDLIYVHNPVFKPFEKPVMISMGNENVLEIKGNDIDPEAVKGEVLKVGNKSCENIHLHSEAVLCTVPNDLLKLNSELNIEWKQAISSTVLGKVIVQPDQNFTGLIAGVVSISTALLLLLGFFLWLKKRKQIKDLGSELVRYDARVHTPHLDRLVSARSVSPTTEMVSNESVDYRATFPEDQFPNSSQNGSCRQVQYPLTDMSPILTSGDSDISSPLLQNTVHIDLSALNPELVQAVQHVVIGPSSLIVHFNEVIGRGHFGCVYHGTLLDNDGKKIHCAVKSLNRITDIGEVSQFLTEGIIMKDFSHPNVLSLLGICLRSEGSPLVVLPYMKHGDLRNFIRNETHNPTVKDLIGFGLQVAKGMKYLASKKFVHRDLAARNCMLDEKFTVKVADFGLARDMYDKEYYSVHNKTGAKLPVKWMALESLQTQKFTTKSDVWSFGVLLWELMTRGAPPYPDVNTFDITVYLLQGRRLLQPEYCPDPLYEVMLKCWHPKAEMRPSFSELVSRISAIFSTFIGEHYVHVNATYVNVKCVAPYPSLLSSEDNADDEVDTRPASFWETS
Assay: whole cell phage ELISA, 3T3 human cMet vs 3T3
MEASUREMENT_LABEL: WC ELISA (fold over background) (fold)
One number for each entry, in fold.

Worked examples, 6 binders total:
BINDER	WC ELISA (fold over background), fold
GSFTACNKTSTTRQPCNPYAP [451-B12 peptide-displaying phage (SEQ ID NO: 384)]	1.37
AQGIAWQLEWSYMPQSPPSFDR [522-H03 peptide-displaying phage (SEQ ID NO: 495)]	1.17
GDDFHCEFIDDYQSEICYFNDP [333-C03 peptide-displaying phage (SEQ ID NO: 391)]	1.37
AGEIFCVGPPTFTCMWTGT [552-G09 peptide-displaying phage (SEQ ID NO: 096)]	1.27
AQHGYLSPLKQYQMSHVEFWTY [94-A06 peptide-displaying phage (SEQ ID NO: 476)]	1.17
AGETFCVGNPSFECWSWGT [545-E05 peptide-displaying phage (SEQ ID NO: 094)]	1.27

For the next question, use this binder.
Kindly indicate its recorded WC ELISA (fold over background). Item: AQELFQILEKQMWSDFMEWATP [15-D02 peptide-displaying phage (SEQ ID NO: 474)] 1.23

Numbers sourced from patent US20120039802A1.
